Values were extracted from patent US7087631B2.

target: xanthine oxidase (Homo sapiens); assay: Xanthine oxidase inhibitory activity, 96 well plate, kinetic reading at 295 nm; format: biochemical; conditions: compound concentration 1 μM
Sequence (P47989 whole entry, species assumed): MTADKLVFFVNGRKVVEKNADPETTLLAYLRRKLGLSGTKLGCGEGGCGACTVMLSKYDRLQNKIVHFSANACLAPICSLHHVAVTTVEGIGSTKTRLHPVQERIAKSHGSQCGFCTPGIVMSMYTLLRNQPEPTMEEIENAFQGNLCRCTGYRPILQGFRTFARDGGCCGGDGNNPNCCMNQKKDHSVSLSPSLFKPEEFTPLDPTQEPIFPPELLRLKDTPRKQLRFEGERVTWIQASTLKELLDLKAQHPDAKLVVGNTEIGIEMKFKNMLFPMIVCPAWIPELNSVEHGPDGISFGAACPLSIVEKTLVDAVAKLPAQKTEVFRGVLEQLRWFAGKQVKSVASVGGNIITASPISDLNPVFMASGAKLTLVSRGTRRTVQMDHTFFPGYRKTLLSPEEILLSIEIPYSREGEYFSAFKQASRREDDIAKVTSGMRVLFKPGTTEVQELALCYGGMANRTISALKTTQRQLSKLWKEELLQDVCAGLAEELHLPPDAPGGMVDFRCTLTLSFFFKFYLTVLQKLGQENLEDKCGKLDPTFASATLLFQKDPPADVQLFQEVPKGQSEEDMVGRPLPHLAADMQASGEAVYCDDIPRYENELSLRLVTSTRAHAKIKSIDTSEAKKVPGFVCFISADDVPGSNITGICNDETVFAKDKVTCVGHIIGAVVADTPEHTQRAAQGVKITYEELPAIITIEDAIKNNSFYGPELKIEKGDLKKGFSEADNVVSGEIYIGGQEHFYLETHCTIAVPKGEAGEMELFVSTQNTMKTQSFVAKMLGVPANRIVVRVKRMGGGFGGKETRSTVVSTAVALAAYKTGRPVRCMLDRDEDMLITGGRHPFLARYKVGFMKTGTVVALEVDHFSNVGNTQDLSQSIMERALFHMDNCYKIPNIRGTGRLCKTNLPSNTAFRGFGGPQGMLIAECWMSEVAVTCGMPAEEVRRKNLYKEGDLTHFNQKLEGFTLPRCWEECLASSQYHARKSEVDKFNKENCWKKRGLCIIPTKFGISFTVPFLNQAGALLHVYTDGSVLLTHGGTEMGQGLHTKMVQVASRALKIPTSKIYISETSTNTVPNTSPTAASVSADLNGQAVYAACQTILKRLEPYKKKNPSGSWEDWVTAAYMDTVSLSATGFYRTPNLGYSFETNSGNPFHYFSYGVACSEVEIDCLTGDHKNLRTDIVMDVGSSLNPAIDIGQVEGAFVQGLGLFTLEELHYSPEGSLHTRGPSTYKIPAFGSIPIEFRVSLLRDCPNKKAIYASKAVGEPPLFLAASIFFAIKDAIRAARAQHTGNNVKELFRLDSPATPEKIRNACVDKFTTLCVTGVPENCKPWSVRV
PROPERTY MEASURED: PERCENT XANTHINE OXIDASE INHIBITION (%)

// solved cases for PERCENT XANTHINE OXIDASE INHIBITION follow
O=C(OCCc1cccs1)c1ccc(-c2nnn[nH]2)cc1
95
CC(C)COc1ccc(-c2nnn[nH]2)cc1
98
O=C(OCc1ccccc1)c1ccc(-c2nnn[nH]2)cc1
78
O=C(O)c1ccc(-c2nnn[nH]2)cc1
11
O=C(O)Cc1ccc(NC(=O)c2ccc(-c3nnn[nH]3)cc2)cc1
90
CC(C)c1ccc(NC(=O)c2ccc(-c3nnn[nH]3)cc2)cc1
92
CCCOC(=O)c1ccc(-c2nnn[nH]2)cc1
95
O=C(OCC(C(F)(F)F)C(F)(F)F)c1ccc(-c2nnn[nH]2)cc1
95
CCCCOC(=O)c1ccc(-c2nnn[nH]2)cc1
73
O=C(OCc1ccc(Cl)cc1)c1ccc(-c2nnn[nH]2)cc1
100

(A) O=C(Nc1ccc(Cl)cc1Cl)c1ccc(-c2nnn[nH]2)cc1
(B) CN(C(=O)c1ccc(-c2nnn[nH]2)cc1)c1ccccc1
Ask | Between A and B , which one has the lower reported PERCENT XANTHINE OXIDASE INHIBITION value? Respond using the label that marks the chosen record.
Reply | B
(B: 0%, A: 86%)

(I) CCCCOc1ccc(NC(=O)c2ccc(-c3nnn[nH]3)cc2)cc1
(II) O=C(OCc1ccccc1I)c1ccc(-c2nnn[nH]2)cc1 [GX]
(III) CC(C)COc1ccc(-c2nnn[nH]2)cc1Br
(IV) O=S(=O)(NC1CCCCC1)c1ccc(-c2nnn[nH]2)cc1
(V) O=C(Oc1cc[n+]([O-])cc1)c1ccc(-c2nnn[nH]2)cc1
Ask | List the 5 entries from lowest PERCENT XANTHINE OXIDASE INHIBITION to highest PERCENT XANTHINE OXIDASE INHIBITION value. Returns: the labels listed in the requested order.
Reply | IV, V, III, I, II
(IV: 0%, V: 9%, III: 31%, I: 64%, II: 100%)

(a) N#Cc1cc(-c2nnn[nH]2)ccc1C(=O)Nc1cccnc1
(b) O=S(=O)(NC12CC3CC(CC(C3)C1)C2)c1ccc(-c2nnn[nH]2)cc1
(c) COC(=O)c1ccc(-c2nnn[nH]2)cc1
(d) O=C(Nc1ccc(-c2nnn[nH]2)cc1)c1ccccc1
(e) c1ccc(CCCOc2ccc(-c3nnn[nH]3)cc2)cc1
Ask | Put these in order: smallest PERCENT XANTHINE OXIDASE INHIBITION first, largest last. Order the labels as requested and give them as your answer.
Reply | b, e, c, d, a
(b: 0%, e: 22%, c: 39%, d: 56%, a: 86%)

* * *

biological target: xanthine oxidase (Homo sapiens); test: Xanthine oxidase inhibitory activity, 96 well plate, kinetic reading at 295 nm; format: biochemical; conditions: compound concentration 0.03 μM
PROPERTY MEASURED: PERCENT XANTHINE OXIDASE INHIBITION (%)

(a) Cc1ccc(NC(=O)c2ccc(-c3nnn[nH]3)cc2)cc1
(b) CCCCOc1ccc(NC(=O)c2ccc(-c3nnn[nH]3)cc2)cc1
(c) O=C(O)Cc1cccc(NC(=O)c2ccc(-c3nnn[nH]3)cc2)c1
Ask | # descending PERCENT XANTHINE OXIDASE INHIBITION order for the listed molecules Use the labels to give the ranking in the order requested.
Reply | b, a, c
(b: 36%, a: 20%, c: 13%)
